System: hADAR2-D E488Q E488Q (human), P78563-2
Sequence: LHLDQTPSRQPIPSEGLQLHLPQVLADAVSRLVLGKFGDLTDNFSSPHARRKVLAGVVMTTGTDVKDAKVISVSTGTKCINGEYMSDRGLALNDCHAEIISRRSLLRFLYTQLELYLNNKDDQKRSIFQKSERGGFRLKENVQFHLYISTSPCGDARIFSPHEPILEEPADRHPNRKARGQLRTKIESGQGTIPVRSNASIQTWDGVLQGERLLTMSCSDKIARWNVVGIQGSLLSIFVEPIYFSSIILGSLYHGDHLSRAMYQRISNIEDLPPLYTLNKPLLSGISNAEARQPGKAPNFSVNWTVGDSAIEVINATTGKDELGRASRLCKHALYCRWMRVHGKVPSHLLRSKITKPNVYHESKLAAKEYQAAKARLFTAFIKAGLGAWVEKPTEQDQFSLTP
ASSAY DETAILS: EMSA
TEST CONTEXT: N12 of top = 8-azanebularine; EMSA: 20 mM Tris-HCl pH 7-7.1, 6% glycerol, 0.5 mM DTT, 60 mM KCl, 20 mM NaCl, 0.1 mM 2-mercaptoethanol, 1.5 mM EDTA, 0.003% NP-40, 160 U/ml RNasin, 100 ug/ml …
ENDPOINT LABEL: Kd

Q: What does the data say about its Kd? Entry: UUCCCCACAUUNGACGUUCAGU / ACUGAACGACCAAUGUGGGGAA [(i) 8-azaN]
Result: < 5 nM

###

Tested on: hADAR2-D (human ADAR2 deaminase domain) (human), P78563-2
Sequence: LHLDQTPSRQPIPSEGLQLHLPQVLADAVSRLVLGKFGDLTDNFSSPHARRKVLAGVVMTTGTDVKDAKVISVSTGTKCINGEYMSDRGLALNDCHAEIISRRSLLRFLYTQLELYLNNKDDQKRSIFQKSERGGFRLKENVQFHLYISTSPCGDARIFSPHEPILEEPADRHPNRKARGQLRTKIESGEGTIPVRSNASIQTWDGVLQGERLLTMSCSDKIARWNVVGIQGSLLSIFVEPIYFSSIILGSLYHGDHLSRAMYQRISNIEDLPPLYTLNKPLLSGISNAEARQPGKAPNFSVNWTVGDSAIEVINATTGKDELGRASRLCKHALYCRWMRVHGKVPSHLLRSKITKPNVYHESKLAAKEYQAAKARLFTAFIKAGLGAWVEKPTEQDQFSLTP
ASSAY DETAILS: EMSA
TEST CONTEXT: N10 = 8-azanebularine; EMSA: 20 mM Tris-HCl pH 7-7.1, 6% glycerol, 0.5 mM DTT, 60 mM KCl, 20 mM NaCl, 0.1 mM 2-mercaptoethanol, 1.5 mM EDTA, 0.003% NP-40, 160 U/ml RNasin, 100 ug/ml …
ENDPOINT LABEL: pKd
Answers are plain numbers, as −log10 of the molar value.

Q: What does the data say about its pKd? Entry: CCCCACAUUNGACGUUCAGUUAGUACCACCAAUGUGGGG [(c) 8-azaN]
Result: 6.51

###

System: hADAR2-D (human ADAR2 deaminase domain) (human), P78563-2
Sequence: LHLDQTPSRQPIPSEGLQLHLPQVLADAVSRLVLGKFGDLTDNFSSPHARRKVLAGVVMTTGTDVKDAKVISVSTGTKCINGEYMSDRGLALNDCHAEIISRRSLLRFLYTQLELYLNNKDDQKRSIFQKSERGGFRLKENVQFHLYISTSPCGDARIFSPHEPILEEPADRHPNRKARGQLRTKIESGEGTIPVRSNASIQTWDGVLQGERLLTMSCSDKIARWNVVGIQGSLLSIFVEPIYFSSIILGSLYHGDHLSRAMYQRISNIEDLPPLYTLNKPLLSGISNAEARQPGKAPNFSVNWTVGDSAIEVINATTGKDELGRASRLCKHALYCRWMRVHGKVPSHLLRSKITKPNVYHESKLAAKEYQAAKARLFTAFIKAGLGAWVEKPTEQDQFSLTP
ASSAY DETAILS: EMSA
TEST CONTEXT: N12 = 8-azanebularine; EMSA: 20 mM Tris-HCl pH 7-7.1, 6% glycerol, 0.5 mM DTT, 60 mM KCl, 20 mM NaCl, 0.1 mM 2-mercaptoethanol, 1.5 mM EDTA, 0.003% NP-40, 160 U/ml RNasin, 100 ug/ml …
ENDPOINT LABEL: Kd (nM)
Numbers only, in nM.

Q: What does the data say about its Kd? Entry: UUCCCCACAUUNGACGUUCAGUUAGUACCACCAAUGUGGGGAA [(b) 8-azaN]
Result: 27

###

Tested on: hADAR2-D (human ADAR2 deaminase domain) (human), P78563-2
Sequence: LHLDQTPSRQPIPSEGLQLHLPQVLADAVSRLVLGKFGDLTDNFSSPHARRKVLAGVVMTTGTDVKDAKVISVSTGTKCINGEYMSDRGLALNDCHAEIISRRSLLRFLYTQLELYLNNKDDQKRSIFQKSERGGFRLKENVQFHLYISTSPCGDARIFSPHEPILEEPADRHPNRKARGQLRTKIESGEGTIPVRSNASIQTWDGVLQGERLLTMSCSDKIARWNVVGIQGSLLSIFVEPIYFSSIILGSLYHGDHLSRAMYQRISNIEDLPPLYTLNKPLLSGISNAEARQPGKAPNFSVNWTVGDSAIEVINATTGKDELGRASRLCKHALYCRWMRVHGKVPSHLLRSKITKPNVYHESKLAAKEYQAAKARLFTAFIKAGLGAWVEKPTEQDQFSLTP
ASSAY DETAILS: EMSA
TEST CONTEXT: N12 of top = 8-azanebularine; EMSA: 20 mM Tris-HCl pH 7-7.1, 6% glycerol, 0.5 mM DTT, 60 mM KCl, 20 mM NaCl, 0.1 mM 2-mercaptoethanol, 1.5 mM EDTA, 0.003% NP-40, 160 U/ml RNasin, 100 ug/ml …
Record form. Attribute: pKd. Fill in for each entry.
Answers are plain numbers, as −log10 of the molar value.

Use the examples below as a reference point.
[[record]]
sequence_text = "UUCCCCACAUUNGACGUUCAGU / ACUGAACGACCAAUGUGGGGAA [(i) 8-azaN]"
endpoint_label = "pKd"
measurement = 7.82

[[record]]
sequence_text = "UUCCCCACAUUNGACGUUCAGU / ACUGAACGUCCAAUGUGGGGAA [(j) 8-azaN]"
endpoint_label = "pKd"
measurement = 8.00


Now, please, on to the next sequence.
Q: What does the data say about its pKd? Entry: UUCCCCACAUUNGACGUUCAGU / ACUGAACCACCAAUGUGGGGAA [(d) 8-azaN]
Result: 7.52

###

Test system: hADAR2-D (human ADAR2 deaminase domain) (human), P78563-2
Sequence: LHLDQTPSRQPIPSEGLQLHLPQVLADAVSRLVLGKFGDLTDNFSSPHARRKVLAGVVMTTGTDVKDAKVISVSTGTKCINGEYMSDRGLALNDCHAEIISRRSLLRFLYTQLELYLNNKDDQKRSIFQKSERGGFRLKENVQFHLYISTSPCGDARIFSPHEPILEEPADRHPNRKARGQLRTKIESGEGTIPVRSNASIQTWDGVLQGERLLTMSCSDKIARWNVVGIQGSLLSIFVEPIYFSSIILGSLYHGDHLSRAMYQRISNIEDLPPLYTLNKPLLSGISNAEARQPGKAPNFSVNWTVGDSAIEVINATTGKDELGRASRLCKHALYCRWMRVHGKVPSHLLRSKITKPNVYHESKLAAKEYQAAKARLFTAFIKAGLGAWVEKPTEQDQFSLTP
ASSAY DETAILS: EMSA
TEST CONTEXT: N12 of top = 8-azanebularine; bottom nt 1-7 2'-deoxy; EMSA: 20 mM Tris-HCl pH 7-7.1, 6% glycerol, 0.5 mM DTT, 60 mM KCl, 20 mM NaCl, 0.1 mM 2-mercaptoethanol, 1.5 mM EDTA, 0.003% NP-40, 160 U/ml RNasin, 100 ug/ml …
ENDPOINT LABEL: Kd

Q: Record UUCCCCACAUUNGACGUUCAGU / ACTGAACCACCAAUGUGGGGAA [(g) 8-azaN] : what is its Kd with hADAR2-D (human ADAR2 deaminase domain) (human), P78563-2?
Result: 99 nM

###

System: hADAR2-D (human ADAR2 deaminase domain) (human), P78563-2
Sequence: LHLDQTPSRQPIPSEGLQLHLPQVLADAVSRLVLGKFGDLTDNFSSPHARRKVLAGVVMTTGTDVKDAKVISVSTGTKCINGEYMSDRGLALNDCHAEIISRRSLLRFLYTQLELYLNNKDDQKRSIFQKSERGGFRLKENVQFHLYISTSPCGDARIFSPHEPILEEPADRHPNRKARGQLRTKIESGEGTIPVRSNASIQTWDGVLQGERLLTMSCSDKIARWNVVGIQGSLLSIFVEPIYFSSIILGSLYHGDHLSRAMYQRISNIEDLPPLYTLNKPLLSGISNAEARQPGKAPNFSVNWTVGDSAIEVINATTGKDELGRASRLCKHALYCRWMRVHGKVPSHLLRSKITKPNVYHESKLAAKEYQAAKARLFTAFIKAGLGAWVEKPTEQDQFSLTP
ASSAY DETAILS: EMSA
TEST CONTEXT: N12 of top = 8-azanebularine; bottom nt 8-15 2'-deoxy; EMSA: 20 mM Tris-HCl pH 7-7.1, 6% glycerol, 0.5 mM DTT, 60 mM KCl, 20 mM NaCl, 0.1 mM 2-mercaptoethanol, 1.5 mM EDTA, 0.003% NP-40, 160 U/ml RNasin, 100 ug/ml …
ENDPOINT LABEL: Kd (nM)
Answers are plain numbers, in nM.

Q: Record UUCCCCACAUUNGACGUUCAGU / ACUGAACCACCAATGUGGGGAA [(h) 8-azaN] : what is its Kd with hADAR2-D (human ADAR2 deaminase domain) (human), P78563-2?
Result: 342
